Target: T1, full-length hANGPTL4 (amino acid residues 26-406 of SEQ ID NO:476) with a C-terminal hexa-histidine tag (human, UniProt Q9BY76 26-406)
T1 construct: also called hANGPTL4-His; hANGPTL4(26-406)-His
T1 sequence: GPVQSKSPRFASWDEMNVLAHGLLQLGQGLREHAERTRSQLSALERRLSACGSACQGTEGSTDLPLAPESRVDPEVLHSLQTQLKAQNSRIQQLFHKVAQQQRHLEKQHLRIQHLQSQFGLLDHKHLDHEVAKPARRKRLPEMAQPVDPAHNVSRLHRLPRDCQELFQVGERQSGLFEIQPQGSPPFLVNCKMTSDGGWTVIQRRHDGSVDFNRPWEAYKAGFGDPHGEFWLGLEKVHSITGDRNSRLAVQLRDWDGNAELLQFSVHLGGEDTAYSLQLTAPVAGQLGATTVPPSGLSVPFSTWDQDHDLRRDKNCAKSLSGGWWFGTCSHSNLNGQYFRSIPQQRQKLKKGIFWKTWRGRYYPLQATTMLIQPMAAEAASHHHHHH
Assay: SPR (Biacore), 25° C., pH 5.75, antigen amino-coupled 450 RU
Below, each entry is listed alongside its reported koff.
Your answer should be a plain number; it is taken to be in s⁻¹.

Here is how some binders turned out for koff.
{"BINDER": "H1H284P (antibody, V domains shown, also called entire H1H284 mAb; Full mAb) VH: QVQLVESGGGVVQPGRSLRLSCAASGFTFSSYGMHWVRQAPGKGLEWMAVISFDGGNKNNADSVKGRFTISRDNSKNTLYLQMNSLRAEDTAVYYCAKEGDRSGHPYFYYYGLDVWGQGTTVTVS VL: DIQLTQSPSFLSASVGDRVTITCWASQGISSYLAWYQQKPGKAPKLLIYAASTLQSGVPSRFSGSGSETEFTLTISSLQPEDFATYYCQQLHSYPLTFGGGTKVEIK", "koff (s⁻¹)": 0.000272}
{"BINDER": "H1H284P Fab fragment (Fab, V domains shown, Fab made by papain digestion of H1H284P (IgG1); also called H1H284 Fab) VH: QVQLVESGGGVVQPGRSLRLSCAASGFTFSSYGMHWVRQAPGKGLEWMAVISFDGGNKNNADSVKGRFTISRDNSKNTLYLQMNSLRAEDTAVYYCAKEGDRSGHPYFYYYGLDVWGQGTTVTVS VL: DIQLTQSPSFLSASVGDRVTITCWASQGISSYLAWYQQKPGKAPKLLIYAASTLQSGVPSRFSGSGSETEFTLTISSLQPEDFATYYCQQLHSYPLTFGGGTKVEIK", "koff (s⁻¹)": 0.00173}
{"BINDER": "H1H268P (antibody, V domains shown, also called entire H1H268 mAb; Full mAb) VH: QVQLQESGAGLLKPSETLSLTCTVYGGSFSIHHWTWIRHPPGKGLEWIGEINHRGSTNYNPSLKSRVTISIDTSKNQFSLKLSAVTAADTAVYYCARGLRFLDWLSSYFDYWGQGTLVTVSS VL: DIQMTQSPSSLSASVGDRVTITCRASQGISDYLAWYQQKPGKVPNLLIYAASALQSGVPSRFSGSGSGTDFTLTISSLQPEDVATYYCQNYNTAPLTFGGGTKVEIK", "koff (s⁻¹)": 0.000446}

Then there is this binder:
Task: Query: koff; subject: H1H268P Fab fragment (Fab, V domains shown, Fab made by papain digestion of H1H268P (IgG1); also called H1H268 Fab) VH: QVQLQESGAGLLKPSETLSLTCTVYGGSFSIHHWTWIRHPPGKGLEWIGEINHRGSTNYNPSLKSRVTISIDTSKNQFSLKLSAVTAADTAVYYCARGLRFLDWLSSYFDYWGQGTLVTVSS VL: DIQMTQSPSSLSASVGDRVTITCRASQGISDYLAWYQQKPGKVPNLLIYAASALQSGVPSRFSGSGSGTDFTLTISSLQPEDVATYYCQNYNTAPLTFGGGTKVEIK
Output: 0.00657
